All values here come from patent US7271147B2.

tested on: Staphylococcus aureus TY-03456 (methicillin-resistant); assay: Minimum growth inhibitory concentration, agar serial dilution; type: cell-based; conditions: Staphylococcus aureus TY-03456 (methicillin-resistant); Mueller-Hinton agar; read-out: Minimum growth inhibitory concentration
Starred links: 1 amine or outer side, 2 acyl side, 3 side chain; linkers in the order of their positions; H or OH if unused. Positions of bridges follow the written chain, without caps; N, C: chain ends. Non-standard residues stand in square brackets, D forms with d. Residues, ends and D or L forms follow the SMILES beside them. ξ: configuration not given here. X4 = CC(C)CCCCCCCCCCC(CC(=O)[*:1])O[*:2]; X6 = CC(C)CCCCCCCCC(CC(=O)[*:1])O[*:2]; X5 = CC(C)CCCCCCCC(CC(=O)[*:1])O[*:2]; X3 = CC(C)CCCCCCC(CC(=O)[*:1])O[*:2]; ξAsp(3ξ-OH) = NC(C(=O)O)C(O)C(=O)O; X1 = O=C(C1C(O)CCN1[*:1])[*:2]
assayReadout: MIC (µg/mL)

[
  {
    "compound": "CC(C)CCCCCCCC1CC(=O)NC(C(C)O)C(=O)N2CCCC2C(=O)N2CCCC2C(=O)NC(CCCNC(=N)N)C(=O)NC(C(O)C(=O)O)C(=O)NC(CO)C(=O)N2CCC(O)C2C(=O)NC(C(O)C(=O)O)C(=O)O1 (stereo not shown) [Tripropeptin A] (TPPR[ξAsp(3ξ-OH)]S[X1][ξAsp(3ξ-OH)]; linker N-C via X5; configuration not given here)",
    "assayReadout": "MIC",
    "unitSymbol": "µg/mL",
    "reported": 6.25
  },
  {
    "compound": "CC(C)CCCCCCCCCCC1CC(=O)NC(C(C)O)C(=O)N2CCCC2C(=O)N2CCCC2C(=O)NC(CCCNC(=N)N)C(=O)NC(C(O)C(=O)O)C(=O)NC(CO)C(=O)N2CCC(O)C2C(=O)NC(C(O)C(=O)O)C(=O)O1 (stereo not shown) [Tripropeptin D] (TPPR[ξAsp(3ξ-OH)]S[X1][ξAsp(3ξ-OH)]; linker N-C via X4; configuration not given here)",
    "assayReadout": "MIC",
    "unitSymbol": "µg/mL",
    "reported": 0.78
  },
  {
    "compound": "CC(C)CCCCCCC1CC(=O)NC(C(C)O)C(=O)N2CCCC2C(=O)N2CCCC2C(=O)NC(CCCNC(=N)N)C(=O)NC(C(O)C(=O)O)C(=O)NC(CO)C(=O)N2CCC(O)C2C(=O)NC(C(O)C(=O)O)C(=O)O1 (stereo not shown) [Tripropeptin Z] (TPPR[ξAsp(3ξ-OH)]S[X1][ξAsp(3ξ-OH)]; linker N-C via X3; configuration not given here)",
    "assayReadout": "MIC",
    "unitSymbol": "µg/mL",
    "reported": 25
  },
  {
    "compound": "CC(C)CCCCCCCCC1CC(=O)NC(C(C)O)C(=O)N2CCCC2C(=O)N2CCCC2C(=O)NC(CCCNC(=N)N)C(=O)NC(C(O)C(=O)O)C(=O)NC(CO)C(=O)N2CCC(O)C2C(=O)NC(C(O)C(=O)O)C(=O)O1 (stereo not shown) [Tripropeptin B] (TPPR[ξAsp(3ξ-OH)]S[X1][ξAsp(3ξ-OH)]; linker N-C via X6; configuration not given here)",
    "assayReadout": "MIC",
    "unitSymbol": "µg/mL",
    "reported": 3.13
  }
]

---

tested on: Corynebacterium bovis 1810
Starred links: 1 amine or outer side, 2 acyl side, 3 side chain; linkers in the order of their positions; H or OH if unused. Positions of bridges follow the written chain, without caps; N, C: chain ends. Non-standard residues stand in square brackets, D forms with d. Residues, ends and D or L forms follow the SMILES beside them. ξ: configuration not given here. X4 = CC(C)CCCCCCCCCCC(CC(=O)[*:1])O[*:2]; X2 = CC(C)CCCCCCCCCC(CC(=O)[*:1])O[*:2]; X6 = CC(C)CCCCCCCCC(CC(=O)[*:1])O[*:2]; X5 = CC(C)CCCCCCCC(CC(=O)[*:1])O[*:2]; X3 = CC(C)CCCCCCC(CC(=O)[*:1])O[*:2]; ξAsp(3ξ-OH) = NC(C(=O)O)C(O)C(=O)O; X1 = O=C(C1C(O)CCN1[*:1])[*:2]
assayReadout: log10(MIC) (log10 of the value in mg/L)

[
  {
    "compound": "CC(C)CCCCCCCCCC1CC(=O)NC(C(C)O)C(=O)N2CCCC2C(=O)N2CCCC2C(=O)NC(CCCNC(=N)N)C(=O)NC(C(O)C(=O)O)C(=O)NC(CO)C(=O)N2CCC(O)C2C(=O)NC(C(O)C(=O)O)C(=O)O1 (centres unmarked) [Tripropeptin C] (TPPR[ξAsp(3ξ-OH)]S[X1][ξAsp(3ξ-OH)]; linker N-C via X2; configuration not given here)",
    "log10(MIC)": -0.41
  },
  {
    "compound": "CC(C)CCCCCCCC1CC(=O)NC(C(C)O)C(=O)N2CCCC2C(=O)N2CCCC2C(=O)NC(CCCNC(=N)N)C(=O)NC(C(O)C(=O)O)C(=O)NC(CO)C(=O)N2CCC(O)C2C(=O)NC(C(O)C(=O)O)C(=O)O1 (centres unmarked) [Tripropeptin A] (TPPR[ξAsp(3ξ-OH)]S[X1][ξAsp(3ξ-OH)]; linker N-C via X5; configuration not given here)",
    "log10(MIC)": 0.19
  },
  {
    "compound": "CC(C)CCCCCCCCC1CC(=O)NC(C(C)O)C(=O)N2CCCC2C(=O)N2CCCC2C(=O)NC(CCCNC(=N)N)C(=O)NC(C(O)C(=O)O)C(=O)NC(CO)C(=O)N2CCC(O)C2C(=O)NC(C(O)C(=O)O)C(=O)O1 (centres unmarked) [Tripropeptin B] (TPPR[ξAsp(3ξ-OH)]S[X1][ξAsp(3ξ-OH)]; linker N-C via X6; configuration not given here)",
    "log10(MIC)": -0.11
  },
  {
    "compound": "CC(C)CCCCCCCCCCC1CC(=O)NC(C(C)O)C(=O)N2CCCC2C(=O)N2CCCC2C(=O)NC(CCCNC(=N)N)C(=O)NC(C(O)C(=O)O)C(=O)NC(CO)C(=O)N2CCC(O)C2C(=O)NC(C(O)C(=O)O)C(=O)O1 (centres unmarked) [Tripropeptin D] (TPPR[ξAsp(3ξ-OH)]S[X1][ξAsp(3ξ-OH)]; linker N-C via X4; configuration not given here)",
    "log10(MIC)": -0.70
  },
  {
    "compound": "CC(C)CCCCCCC1CC(=O)NC(C(C)O)C(=O)N2CCCC2C(=O)N2CCCC2C(=O)NC(CCCNC(=N)N)C(=O)NC(C(O)C(=O)O)C(=O)NC(CO)C(=O)N2CCC(O)C2C(=O)NC(C(O)C(=O)O)C(=O)O1 (centres unmarked) [Tripropeptin Z] (TPPR[ξAsp(3ξ-OH)]S[X1][ξAsp(3ξ-OH)]; linker N-C via X3; configuration not given here)",
    "log10(MIC)": 0.80
  }
]

---

Collected MIC values appear next to each entry.
test system: Enterococcus faecium JCM5804; experiment: Minimum growth inhibitory concentration, agar serial dilution; type: cell-based; details: 5% sheep blood-supplemented Mueller-Hinton agar
Starred links: 1 amine or outer side, 2 acyl side, 3 side chain; linkers in the order of their positions; H or OH if unused. Positions of bridges follow the written chain, without caps; N, C: chain ends. Non-standard residues stand in square brackets, D forms with d. Residues, ends and D or L forms follow the SMILES beside them. ξ: configuration not given here. X4 = CC(C)CCCCCCCCCCC(CC(=O)[*:1])O[*:2]; X2 = CC(C)CCCCCCCCCC(CC(=O)[*:1])O[*:2]; X6 = CC(C)CCCCCCCCC(CC(=O)[*:1])O[*:2]; X5 = CC(C)CCCCCCCC(CC(=O)[*:1])O[*:2]; X3 = CC(C)CCCCCCC(CC(=O)[*:1])O[*:2]; ξAsp(3ξ-OH) = NC(C(=O)O)C(O)C(=O)O; X1 = O=C(C1C(O)CCN1[*:1])[*:2]

[
  {
    "molecule": "CC(C)CCCCCCCC1CC(=O)NC(C(C)O)C(=O)N2CCCC2C(=O)N2CCCC2C(=O)NC(CCCNC(=N)N)C(=O)NC(C(O)C(=O)O)C(=O)NC(CO)C(=O)N2CCC(O)C2C(=O)NC(C(O)C(=O)O)C(=O)O1 (centres unmarked) [Tripropeptin A] (TPPR[ξAsp(3ξ-OH)]S[X1][ξAsp(3ξ-OH)]; linker N-C via X5; configuration not given here)",
    "measurementQualifier": "=",
    "MIC / µg/mL": 50
  },
  {
    "molecule": "CC(C)CCCCCCCCCC1CC(=O)NC(C(C)O)C(=O)N2CCCC2C(=O)N2CCCC2C(=O)NC(CCCNC(=N)N)C(=O)NC(C(O)C(=O)O)C(=O)NC(CO)C(=O)N2CCC(O)C2C(=O)NC(C(O)C(=O)O)C(=O)O1 (centres unmarked) [Tripropeptin C] (TPPR[ξAsp(3ξ-OH)]S[X1][ξAsp(3ξ-OH)]; linker N-C via X2; configuration not given here)",
    "measurementQualifier": "=",
    "MIC / µg/mL": 12.5
  },
  {
    "molecule": "CC(C)CCCCCCCCC1CC(=O)NC(C(C)O)C(=O)N2CCCC2C(=O)N2CCCC2C(=O)NC(CCCNC(=N)N)C(=O)NC(C(O)C(=O)O)C(=O)NC(CO)C(=O)N2CCC(O)C2C(=O)NC(C(O)C(=O)O)C(=O)O1 (centres unmarked) [Tripropeptin B] (TPPR[ξAsp(3ξ-OH)]S[X1][ξAsp(3ξ-OH)]; linker N-C via X6; configuration not given here)",
    "measurementQualifier": "=",
    "MIC / µg/mL": 25
  },
  {
    "molecule": "CC(C)CCCCCCCCCCC1CC(=O)NC(C(C)O)C(=O)N2CCCC2C(=O)N2CCCC2C(=O)NC(CCCNC(=N)N)C(=O)NC(C(O)C(=O)O)C(=O)NC(CO)C(=O)N2CCC(O)C2C(=O)NC(C(O)C(=O)O)C(=O)O1 (centres unmarked) [Tripropeptin D] (TPPR[ξAsp(3ξ-OH)]S[X1][ξAsp(3ξ-OH)]; linker N-C via X4; configuration not given here)",
    "measurementQualifier": "=",
    "MIC / µg/mL": 6.25
  },
  {
    "molecule": "CC(C)CCCCCCC1CC(=O)NC(C(C)O)C(=O)N2CCCC2C(=O)N2CCCC2C(=O)NC(CCCNC(=N)N)C(=O)NC(C(O)C(=O)O)C(=O)NC(CO)C(=O)N2CCC(O)C2C(=O)NC(C(O)C(=O)O)C(=O)O1 (centres unmarked) [Tripropeptin Z] (TPPR[ξAsp(3ξ-OH)]S[X1][ξAsp(3ξ-OH)]; linker N-C via X3; configuration not given here)",
    "measurementQualifier": ">",
    "MIC / µg/mL": 100
  }
]
